Target: CXCR2 (Homo sapiens)
Construct: expressed in transfected cells
Sequence (P25025 1-360): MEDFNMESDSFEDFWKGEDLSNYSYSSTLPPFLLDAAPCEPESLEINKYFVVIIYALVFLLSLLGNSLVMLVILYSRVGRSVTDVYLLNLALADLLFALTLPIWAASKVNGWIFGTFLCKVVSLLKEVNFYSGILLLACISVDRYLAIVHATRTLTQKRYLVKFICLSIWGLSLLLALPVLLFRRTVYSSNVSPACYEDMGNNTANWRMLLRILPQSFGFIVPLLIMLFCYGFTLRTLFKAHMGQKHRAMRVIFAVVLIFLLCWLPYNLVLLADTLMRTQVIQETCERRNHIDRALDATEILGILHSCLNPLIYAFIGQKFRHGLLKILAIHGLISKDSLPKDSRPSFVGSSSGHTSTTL
Experiment: NanoBRET β-arrestin1 recruitment inhibition assay (NanoLux) in HEK293A cells
Format: cell-based
Conditions: CXCL6 at EC80; normalized to Imax of navarixin = 100%; n = 3
Each entry below carries its recorded Imax βarr1 (maximum observed inhibitory effect).
quantity measured: Imax βarr1 (maximum observed inhibitory effect) (%)

> print(dat)
                                   compound  result.unit  result.value
1  CC(CCO)Nc1nc(SCc2cccc(F)c2F)nc2[nH]nnc12 (centres unmarked) [MVH-33]            %         93.68
2  CC(CO)Nc1nc(SCc2cccc(F)c2F)nc2ncsc12 (centres unmarked) [MVH-22]            %           100
3  CCCC(C)CSc1nc(NC(C)CO)c2nn[nH]c2n1 (centres unmarked) [MVH-82]            %           100
4  CC(CO)Nc1nc(SCc2cccc(F)c2F)nc2[nH]cnc12 (centres unmarked) [MVH-15]            %           100
5  CC(CO)Nc1nc(SCc2cccc(F)c2F)nc2cnccc12 (centres unmarked) [MVH-3]            %           100
6  CC(CO)Nc1nc(SCc2cccc(F)c2F)nc2oncc12 (centres unmarked) [MVH-24]            %           100
7  CC(CO)Nc1nc(SCc2cccc(F)c2F)nc2nc(N)sc12 (centres unmarked) [MVH-23]            %           100
8  C[C@H](CO)Nc1nc(SCc2cccc(Cl)c2F)nc2[nH]c(=O)sc12 [AZ10397767, reference compound]            %           100
